# Species on record: Rattus norvegicus
# assayProtocol: Tissue biodistribution into estrogen-primed immature female rat kidney at 1 hr time interval
# Type: ADME, organism-based
# testContext: in vivo

compound: C[C@@]1(c2ccc(F)cc2)O[C@@H]2CC3C4CCC5=CC(=O)CC[C@@H]5C4CC[C@]3(C)[C@]2(C(=O)CO)O1 (stereo not given in full)
readoutUnit: %
Injected dose/g: 1.42

compound: CC(=O)[C@@]12O[C@](C)(c3ccc(F)cc3)O[C@@H]1CC1C3CCC4=CC(=O)CC[C@]4(C)C3CC[C@@]12C (stereo not given in full)
readoutUnit: %
Injected dose/g: 2.18

compound: C[C@]12CCC3C(CCC4=CC(=O)CC[C@@H]43)C1C[C@H]1OC(c3ccco3)O[C@]12C(=O)CF (stereo not given in full)
readoutUnit: %
Injected dose/g: 1.66

compound: CC[C@@H]1C[C@H]2[C@@H]3CCC4=CC(=O)CC[C@@H]4[C@H]3CC[C@]2(C)[C@H]1C(=O)CF
readoutUnit: %
Injected dose/g: 1.05

compound: CC1(c2ccco2)O[C@@H]2CC3C4CCC5=CC(=O)CC[C@@H]5C4CC[C@]3(C)[C@]2(C(=O)CF)O1 (stereo not given in full)
readoutUnit: %
Injected dose/g: 1.59

* * *

# experimentalTarget: Progesterone receptor (Homo sapiens) (UniProt P06401)
# Sequence (whole entry): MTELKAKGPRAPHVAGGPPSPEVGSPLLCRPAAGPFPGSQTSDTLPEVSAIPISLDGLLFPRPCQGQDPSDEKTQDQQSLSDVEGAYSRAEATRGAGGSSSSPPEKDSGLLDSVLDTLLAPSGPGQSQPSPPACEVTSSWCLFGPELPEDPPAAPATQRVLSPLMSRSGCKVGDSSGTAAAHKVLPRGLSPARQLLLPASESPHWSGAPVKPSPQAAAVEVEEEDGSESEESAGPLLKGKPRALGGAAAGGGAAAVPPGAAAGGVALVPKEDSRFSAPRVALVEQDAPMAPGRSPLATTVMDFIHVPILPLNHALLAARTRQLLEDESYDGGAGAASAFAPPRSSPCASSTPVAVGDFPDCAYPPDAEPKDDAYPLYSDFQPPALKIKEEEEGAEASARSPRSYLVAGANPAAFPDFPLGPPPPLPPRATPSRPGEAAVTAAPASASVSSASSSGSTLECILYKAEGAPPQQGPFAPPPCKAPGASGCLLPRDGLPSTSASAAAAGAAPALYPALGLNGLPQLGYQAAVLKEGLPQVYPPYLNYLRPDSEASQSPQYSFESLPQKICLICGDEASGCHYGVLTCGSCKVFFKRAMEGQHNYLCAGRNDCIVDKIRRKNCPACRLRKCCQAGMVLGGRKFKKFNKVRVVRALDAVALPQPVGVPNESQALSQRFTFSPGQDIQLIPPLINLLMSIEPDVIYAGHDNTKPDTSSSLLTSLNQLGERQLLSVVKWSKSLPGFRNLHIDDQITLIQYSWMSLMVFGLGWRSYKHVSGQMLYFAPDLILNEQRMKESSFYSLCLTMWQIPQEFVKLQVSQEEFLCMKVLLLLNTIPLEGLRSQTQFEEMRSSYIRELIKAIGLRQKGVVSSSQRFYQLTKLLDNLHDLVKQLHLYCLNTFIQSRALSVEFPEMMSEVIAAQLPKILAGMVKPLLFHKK
# assayProtocol: Nonspecific binding affinity against progesterone receptor was estimated relative to compound R5020
NSB vs 1: at or above is Satisfied, below is Not satisfied.

compound: CC(=O)[C@@]12O[C@](C)(c3ccc(F)cc3)O[C@@H]1CC1C3CCC4=CC(=O)CC[C@]4(C)C3CC[C@@]12C (stereo partly drawn)
labelValue: Satisfied
//
compound: C[C@@]1(c2ccc(F)cc2)O[C@@H]2CC3C4CCC5=CC(=O)CC[C@@H]5C4CC[C@]3(C)[C@]2(C(=O)CO)O1 (stereo partly drawn)
labelValue: Satisfied
//
compound: CC1(c2ccc(F)cc2)O[C@@H]2CC3C4CCC5=CC(=O)CC[C@@H]5C4CC[C@]3(C)[C@]2(C(=O)CF)O1 (stereo partly drawn)
labelValue: Satisfied
//
compound: CC[C@@H]1C[C@H]2[C@@H]3CCC4=CC(=O)CC[C@@H]4[C@H]3CC[C@]2(C)[C@H]1C(=O)CO
labelValue: Not satisfied
//
compound: CC[C@@H]1C[C@H]2[C@@H]3CCC4=CC(=O)CC[C@@H]4[C@H]3CC[C@]2(C)[C@H]1C(=O)CF
labelValue: Satisfied
//
compound: CC1(c2ccco2)O[C@@H]2CC3C4CCC5=CC(=O)CC[C@@H]5C4CC[C@]3(C)[C@]2(C(=O)CF)O1 (stereo partly drawn)
labelValue: Satisfied
//
compound: CC(=O)[C@H]1CC[C@H]2[C@@H]3CCC4=CC(=O)CC[C@]4(C)[C@H]3CC[C@]12C
labelValue: Not satisfied
